- TESTED TARGET: FLT3 (h) (Homo sapiens (Human))
- Sequence (P36888 27-993): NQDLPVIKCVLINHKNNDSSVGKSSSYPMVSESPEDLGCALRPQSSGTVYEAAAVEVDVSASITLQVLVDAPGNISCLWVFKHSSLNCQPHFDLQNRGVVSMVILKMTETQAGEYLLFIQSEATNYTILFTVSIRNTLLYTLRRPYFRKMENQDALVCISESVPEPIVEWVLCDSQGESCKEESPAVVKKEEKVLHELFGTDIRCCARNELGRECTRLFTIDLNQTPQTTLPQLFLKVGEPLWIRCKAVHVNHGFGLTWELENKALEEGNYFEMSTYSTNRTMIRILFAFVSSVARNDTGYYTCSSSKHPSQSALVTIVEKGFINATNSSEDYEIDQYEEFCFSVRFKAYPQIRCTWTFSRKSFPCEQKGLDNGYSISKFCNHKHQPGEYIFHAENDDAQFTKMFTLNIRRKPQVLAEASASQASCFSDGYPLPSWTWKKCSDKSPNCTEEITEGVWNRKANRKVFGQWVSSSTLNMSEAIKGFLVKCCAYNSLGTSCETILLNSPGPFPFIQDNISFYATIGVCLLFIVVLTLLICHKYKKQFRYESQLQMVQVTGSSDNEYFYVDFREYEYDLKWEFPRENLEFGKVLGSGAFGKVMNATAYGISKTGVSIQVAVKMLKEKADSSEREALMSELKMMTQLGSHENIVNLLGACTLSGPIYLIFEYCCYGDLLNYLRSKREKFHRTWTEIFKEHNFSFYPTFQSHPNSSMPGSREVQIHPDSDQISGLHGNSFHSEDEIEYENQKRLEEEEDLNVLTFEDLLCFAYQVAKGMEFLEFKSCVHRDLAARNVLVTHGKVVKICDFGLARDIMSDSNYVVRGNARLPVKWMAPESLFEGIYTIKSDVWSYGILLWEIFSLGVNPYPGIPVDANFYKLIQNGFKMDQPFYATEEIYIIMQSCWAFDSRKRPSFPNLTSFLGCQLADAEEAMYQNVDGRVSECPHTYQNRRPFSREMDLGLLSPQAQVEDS
- ASSAY REMARKS: FLT3 kinase assay (33P-ATP filter binding, Millipore)
- Assay type: biochemical
OUTCOME MEASURE: IC50 (nM)
Give bare numbers, in nM.

Give one value of IC50 per listed compound.
1. Cn1cc(Nc2ncc(Cl)c(NC3CC4CN(S(C)(=O)=O)CC4C3)n2)cn1 (centres unmarked)
2. CC(=O)N1CCC2(CCC(Nc3nc(Nc4cnn(C)c4)ncc3Cl)CC2)CC1

1: 134; 2: 16

###

- ASSAY REMARKS: Compound stability in human liver microsomes
- Format: in vitro ADME
- PROTOCOL CONDITIONS: human, liver microsomes, pH 7.4, Human liver microsomes; in vivo CLint extrapolated
Please provide measured CLint scaled at 5 μM for the entries that follow.
Answers are plain numbers, in mL/min/kg.

Cc1cnc(Nc2cnn(C)c2)nc1N(C)C1CCC2(CC1)CCN(C(=O)CC#N)CC2 | 13.9

Quick batch: CLint scaled at 5 μM for everything below.
1. N#CCC(=O)N1CCC2(CCC(Nc3nc(Nc4cnn(CCO)c4)ncc3Cl)CC2)CC1
2. Cc1cc(Nc2ncc(Cl)c(NC3CCC4(CC3)CCN(C(=O)CC#N)CC4)n2)nn1C

[3.24, 30.9]

###

Measured IC50 (JAK2 (h) (Homo sapiens (Human)))
Numbers only, in nM.

Use these answered entries as a reference point.
CN(c1nc(Nc2cnn(C)c2)ncc1Cl)C1CCC2(CC1)CCN(C(=O)CC#N)C2 (single isomer, unassigned) [Ex. 4A] | 83
CC(=O)N1CCC2(CCC(Nc3nc(Nc4cnn(C)c4)ncc3Cl)CC2)CC1 [Ex. 28] | 4
Cc1cnc(Nc2cnn(C)c2)nc1NC1CCC2(CC1)CCN(C(=O)CC#N)C2 (stereo not shown) [Ex. 10] | 129

Now for the compound whose IC50 we want.
Recorded IC50 for Cn1cc(Nc2ncc(Cl)c(NC3CCC4(CC3)CCN(C(=O)CC#N)CC4)n2)cn1 [Ex. 26] , please?
6

###

- TESTED TARGET: JAK2 (h) (Homo sapiens (Human), UniProt O60674)
- Sequence (O60674 whole entry): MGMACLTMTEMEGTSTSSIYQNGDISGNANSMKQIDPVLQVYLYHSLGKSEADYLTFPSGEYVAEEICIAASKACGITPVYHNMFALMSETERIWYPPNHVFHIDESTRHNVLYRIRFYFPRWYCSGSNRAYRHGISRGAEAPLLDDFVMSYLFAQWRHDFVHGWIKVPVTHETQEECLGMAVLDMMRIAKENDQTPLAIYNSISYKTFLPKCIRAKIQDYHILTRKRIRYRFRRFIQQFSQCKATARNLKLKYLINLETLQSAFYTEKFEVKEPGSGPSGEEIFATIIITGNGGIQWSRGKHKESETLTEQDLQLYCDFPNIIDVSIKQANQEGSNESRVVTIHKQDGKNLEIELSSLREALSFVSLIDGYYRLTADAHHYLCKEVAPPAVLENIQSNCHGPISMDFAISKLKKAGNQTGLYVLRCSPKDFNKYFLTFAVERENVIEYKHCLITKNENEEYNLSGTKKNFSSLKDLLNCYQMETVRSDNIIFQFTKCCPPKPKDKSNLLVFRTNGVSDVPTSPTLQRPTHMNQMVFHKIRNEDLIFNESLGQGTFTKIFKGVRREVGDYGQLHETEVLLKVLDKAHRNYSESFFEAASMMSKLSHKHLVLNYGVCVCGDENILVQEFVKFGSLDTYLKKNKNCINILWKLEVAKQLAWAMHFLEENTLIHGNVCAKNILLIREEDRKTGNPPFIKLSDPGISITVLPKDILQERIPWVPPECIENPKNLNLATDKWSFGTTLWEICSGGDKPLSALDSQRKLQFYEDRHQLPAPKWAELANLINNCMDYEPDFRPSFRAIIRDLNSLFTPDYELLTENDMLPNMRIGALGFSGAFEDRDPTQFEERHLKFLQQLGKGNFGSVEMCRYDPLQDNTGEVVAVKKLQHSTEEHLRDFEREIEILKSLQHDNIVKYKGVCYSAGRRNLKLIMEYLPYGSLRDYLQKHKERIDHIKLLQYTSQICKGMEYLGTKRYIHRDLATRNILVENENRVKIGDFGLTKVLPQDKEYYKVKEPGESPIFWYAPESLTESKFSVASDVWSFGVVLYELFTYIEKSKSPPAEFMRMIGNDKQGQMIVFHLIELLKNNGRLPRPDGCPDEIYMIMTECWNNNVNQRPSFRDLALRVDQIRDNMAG
pIC50: −log10 of the molar value.
Mark t for reported pIC50 of 8 or greater; mark f for anything smaller.

Would you please look over these solved cases?
Cn1cc(Nc2ncc(Cl)c(NC3CC4CNCC4C3)n2)cn1 (centres unmarked) [Ex. 11] | f
Cn1cc(Nc2ncc(Cl)c(NC3CCC4(CC3)CCN(C(=O)C(F)(F)F)CC4)n2)cn1 [Ex. 30] | t
Cn1cc(Nc2ncc(Cl)c(NC3CCC4(CC3)CCN(S(C)(=O)=O)CC4)n2)cn1 [Ex. 29] | t

pIC50 >= 8 for Cc1cnc(Nc2cnn(C)c2)nc1NC1CCC2(CC1)CCN(C(=O)CC#N)CC2 [Ex. 25] ?
f

###

I'd be grateful if you could share measured F for these entries.
- ASSAY REMARKS: Pharmacokinetics after intravenous and oral administration in rats
- Type: in vivo
- PROTOCOL CONDITIONS: oral bioavailability
Give bare numbers, in %.

// input: 7 molecules below; output: F for each
1. Cc1cnc(Nc2cnn(C)c2)nc1NC1CN(C(=O)CC#N)CC12CCCC2 (stereo not shown) [Ex. 8]
2. N#CCC(=O)N1CC2CC(Nc3nc(Nc4cnn(CCO)c4)ncc3Cl)CC2C1 (stereo not shown) [Ex. 44]
3. Cn1cc(Nc2ncc(Cl)c(NC3CCC4(CC3)CCN(S(C)(=O)=O)CC4)n2)cn1 [Ex. 29]
4. N#CCC(=O)N1CCC2(CCC(Nc3nc(Nc4cnn(CC5CC5)c4)ncc3Cl)CC2)CC1 [Ex. 48]
5. Cc1c(Nc2ncc(Cl)c(NC3CC4CN(C(=O)CC#N)CC4C3)n2)cnn1C (stereo not shown) [Ex. 66]
6. CN(c1ccnc(Nc2cnn(C)c2)n1)C1CNCC12CCCC2 (stereo not shown) [Ex. 1]
7. CC(=O)N1CC2CC(Nc3nc(Nc4cc(C5CC5)[nH]n4)ncc3Cl)CC2C1 (stereo not shown) [Ex. 53]

1: 17.5; 2: 12.0; 3: 19.1; 4: 13.6; 5: 21.0; 6: 44.39; 7: 33.0

###

Would you mind telling me the reported pIC50 of each entry?
- TESTED TARGET: JAK1 (h) (Homo sapiens (Human))
- Sequence (P23458 whole entry): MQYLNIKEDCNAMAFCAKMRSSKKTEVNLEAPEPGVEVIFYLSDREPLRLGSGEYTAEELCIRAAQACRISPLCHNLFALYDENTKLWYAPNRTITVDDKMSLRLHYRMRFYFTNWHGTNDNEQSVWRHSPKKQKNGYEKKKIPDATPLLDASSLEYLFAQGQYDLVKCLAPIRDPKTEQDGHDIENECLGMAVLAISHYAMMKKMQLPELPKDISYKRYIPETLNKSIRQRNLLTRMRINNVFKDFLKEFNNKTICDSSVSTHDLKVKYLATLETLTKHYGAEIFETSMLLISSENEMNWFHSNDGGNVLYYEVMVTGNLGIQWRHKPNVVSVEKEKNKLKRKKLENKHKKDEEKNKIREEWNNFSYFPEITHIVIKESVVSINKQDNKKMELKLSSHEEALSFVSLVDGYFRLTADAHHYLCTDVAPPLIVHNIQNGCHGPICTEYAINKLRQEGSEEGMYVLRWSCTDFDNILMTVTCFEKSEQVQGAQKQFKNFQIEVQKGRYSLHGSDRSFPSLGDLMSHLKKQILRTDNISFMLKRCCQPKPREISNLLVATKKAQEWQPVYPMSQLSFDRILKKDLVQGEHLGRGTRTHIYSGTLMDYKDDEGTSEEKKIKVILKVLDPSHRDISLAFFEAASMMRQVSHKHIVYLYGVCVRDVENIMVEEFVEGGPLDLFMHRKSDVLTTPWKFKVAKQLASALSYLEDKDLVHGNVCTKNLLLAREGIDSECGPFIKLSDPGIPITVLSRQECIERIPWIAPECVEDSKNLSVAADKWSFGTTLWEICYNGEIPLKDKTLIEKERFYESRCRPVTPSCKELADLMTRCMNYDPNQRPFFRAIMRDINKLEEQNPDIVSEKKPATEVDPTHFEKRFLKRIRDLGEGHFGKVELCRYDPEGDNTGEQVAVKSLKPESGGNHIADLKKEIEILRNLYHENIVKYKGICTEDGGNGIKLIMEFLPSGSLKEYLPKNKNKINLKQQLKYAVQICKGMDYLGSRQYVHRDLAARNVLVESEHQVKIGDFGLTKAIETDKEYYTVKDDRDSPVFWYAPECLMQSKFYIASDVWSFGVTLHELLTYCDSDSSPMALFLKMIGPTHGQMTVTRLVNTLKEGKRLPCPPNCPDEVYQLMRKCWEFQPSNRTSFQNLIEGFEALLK
Answers are plain numbers, as −log10 of the molar value.

N#CCC(=O)N1CC2CC(Nc3nc(Nc4cnn(CC5CC5)c4)ncc3Cl)CC2C1 (stereo not shown) [Ex. 46] | 9.30
Cc1cnc(Nc2cnn(C)c2)nc1NC1CC2CN(c3ccc(C#N)cn3)CC2C1 (stereo not shown) [Ex. 59] | 9.00
Cn1cc(Nc2ncc(Cl)c(NC3CC4CN(C(=O)CC#N)CC4C3)n2)cn1 (stereo not shown) [Ex. 12] | 9.00

Which pIC50 reading was recorded for the compound Cn1cc(Nc2ncc(Cl)c(NC3CCC4(CC3)CCN(c3ccc(C#N)cn3)CC4)n2)cn1 [Ex. 27] ?
8.40

###

- ASSAY REMARKS: Pharmacokinetics after intravenous and oral administration in rats
- Type: in vivo
- PROTOCOL CONDITIONS: iv dosing, dose 1 mg/kg (Ex. 27: 0.72 mg/kg)
- Description: The LC/MS/MS system used in the analysis consists of an Agilent 1200 Series vacuum degasser, binary pump, well-plate autosampler, thermostatted column compartment, the Agilent G6430 Triple Quadrupole Mass Spectrometer with an electrosprayionization (ESI) source. Quantitative analysis was carried out using MRM mode. The parameters for MRM transitions are in the Table A. […] The compounds disclosed herein are assessed in pharmacokinetic studies in mice, rats, dogs or monkeys. […]
Classify as follows. Reported Clearance (CL) after iv dosing greater than or equal to 60 mL/min/kg: MET. Reported Clearance (CL) after iv dosing below: NOT MET.

Could you verify whether the entry CC(=O)N1CCC2(CCC(Nc3nc(Nc4cnn(C)c4)ncc3Cl)CC2)CC1 shows Clearance (CL) after iv dosing of no less than 60 mL/min/kg?
MET

Kindly determine if Clearance (CL) after iv dosing recorded for CN(c1nc(Nc2cnn(C)c2)ncc1Cl)C1CCC2(CC1)CCN(C(=O)CC#N)C2 (single isomer, unassigned) is above or exactly 60 mL/min/kg.
NOT MET

In plain terms: is recorded Clearance (CL) after iv dosing at least 60 mL/min/kg for Cn1cc(Nc2ncc(Cl)c(NC3CC4CN(C(=O)CC#N)CC4C3)n2)cn1 (stereo not shown) ?
MET

Threshold query (Clearance (CL) after iv dosing >= 60 mL/min/kg) on CN(c1nc(Nc2cnn(C)c2)ncc1Cl)C1CC2CN(C(=O)CC#N)CC2C1 (stereo not shown)
MET

Could you please find out whether Cn1cc(Nc2ncc(Cl)c(NC3CCC4(CC3)CCN(S(C)(=O)=O)CC4)n2)cn1 has Clearance (CL) after iv dosing that meets 60 mL/min/kg or exceeds it?
NOT MET

Clearance (CL) after iv dosing >= 60 mL/min/kg for Cn1cc(Nc2ncc(Cl)c(NC3CC4CN(c5ccc(C#N)cn5)CC4C3)n2)cn1 (stereo not shown) ?
NOT MET

Textbook exercise: given the entry CC(=O)N1CC2CC(Nc3nc(Nc4cc(C5CC5)[nH]n4)ncc3Cl)CC2C1 (stereo not shown) , state whether its Clearance (CL) after iv dosing is greater than or equal to 60 mL/min/kg.
NOT MET

###

Record type: log10 of IC50 measurement. Applies to: JAK2 (h) (Homo sapiens (Human))
In our notation, the value equals log10 of IC50 in nM.

Cn1cc(Nc2ncc(Cl)c(NC3CCC4(CCNC4)CC3)n2)cn1 (single isomer, unassigned) | 1.74
Cn1cc(Nc2ncc(Cl)c(NC3CC4CN(c5ccc(C#N)cn5)CC4C3)n2)cn1 (stereo not shown) | 0.48
Cn1cc(Nc2ncc(Cl)c(NC3CC4CN(C(=O)CC#N)CC4C3)n2)cn1 (stereo not shown) | 1.26

Could I get log10 of IC50 for every one of these entries?
1. Cc1cc(Nc2ncc(Cl)c(NC3CC4CN(C(=O)CC#N)CC4C3)n2)nn1C (stereo not shown)
2. CN(c1nc(Nc2cnn(C)c2)ncc1Cl)C1CCC2(CCCN(C(=O)CC#N)C2)C1 (stereo not shown)
3. Cn1cc(Nc2ncc(Cl)c(NC3CCC4(CC3)CCN(c3ccc(C#N)cn3)CC4)n2)cn1
4. Cn1cc(Nc2ncc(Cl)c(NC3CCC4(CC3)CCN(C(=O)CC#N)C4)n2)cn1 (single isomer, unassigned) [Ex. 14A]

[1.48, 0.85, 1.36, 0.70]

###

- ASSAY REMARKS: Pharmacokinetics after intravenous and oral administration in rats
- Format: in vivo
- PROTOCOL CONDITIONS: rat, plasma, iv dosing, dose 1 mg/kg (Ex. 27: 0.72 mg/kg), read-out: Vss
Provide the reported log10(Vd) of each item.
Plainly stated, the numbers are log10 of Vd given in L/kg.

Example molecules with recorded log10(Vd):
Cn1cc(Nc2ncc(Cl)c(NC3CCC4CN(C(=O)CC#N)CC4C3)n2)cn1 (stereo not drawn) [Ex. 22] | 0.31
Cc1nn(C)cc1Nc1ncc(Cl)c(NC2CC3CN(C(=O)CC#N)CC3C2)n1 (stereo not drawn) [Ex. 64] | 0.12
N#CCC(=O)N1CCC2(CCC(Nc3nc(Nc4cnn(CC5CC5)c4)ncc3Cl)CC2)CC1 [Ex. 48] | 0.53
CC(=O)N1CC2CC(Nc3nc(Nc4cnn(C)c4)ncc3Cl)CC2C1 (stereo not drawn) [Ex. 32] | 0.22
Cn1cc(Nc2ncc(Cl)c(NC3CN(C(=O)CC#N)CC34CCCC4)n2)cn1 (stereo not drawn) [Ex. 18] | 0.64

For the 2 molecules below, give their log10(Vd) values.
1. N#CCC(=O)N1CC2CC(Nc3nc(Nc4cnn(CC5CC5)c4)ncc3Cl)CC2C1 (stereo not drawn) [Ex. 46]
2. N#CCC(=O)N1CCC2(CCC(Nc3nc(Nc4cnn(CCO)c4)ncc3Cl)CC2)CC1 [Ex. 50]

1. 0.18
2. 0.29

// for each molecule in input: emit log10(Vd)
1. Cc1cc(Nc2ncc(Cl)c(NC3CC4CN(C(=O)CC#N)CC4C3)n2)nn1C (stereo not drawn) [Ex. 39]
2. Cc1cc(Nc2ncc(Cl)c(NC3CCC4(CC3)CCN(C(=O)CC#N)CC4)n2)nn1C [Ex. 37]

1. 0.08
2. 0.47

Go through the items and report each one's log10(Vd).
1. Cn1cc(Nc2ncc(Cl)c(NC3CC4CN(C(=O)CC#N)CC4C3)n2)cn1 (stereo not drawn) [Ex. 12]
2. CC(=O)N1CCC2(CCC(Nc3nc(Nc4cnn(C)c4)ncc3Cl)CC2)CC1 [Ex. 28]
3. Cc1c(Nc2ncc(Cl)c(NC3CC4CN(C(=O)CC#N)CC4C3)n2)cnn1C (stereo not drawn) [Ex. 66]
4. Cc1cnc(Nc2cnn(C)c2)nc1NC1CC2CN(c3ccc(C#N)cn3)CC2C1 (stereo not drawn) [Ex. 59]
5. CN(c1nc(Nc2cnn(C)c2)ncc1Cl)C1CC2CN(C(=O)CC#N)CC2C1 (stereo not drawn) [Ex. 69]
6. CN(c1ccnc(Nc2cnn(C)c2)n1)C1CNCC12CCCC2 (stereo not drawn) [Ex. 1]

[0.24, 0.49, 0.36, 0.25, 0.08, 1.61]

Count: 3. Required value per item: log10(Vd).
1. COc1cnc(Nc2cc(C3CC3)[nH]n2)nc1NC1CC2CN(C(=O)CC#N)CC2C1 (stereo not drawn) [Ex. 52]
2. Cn1cc(Nc2ncc(Cl)c(NC3CCC4(CC3)CCN(S(C)(=O)=O)CC4)n2)cn1 [Ex. 29]
3. Cn1cc(Nc2ncc(Cl)c(NC3CCC4(CC3)CCN(C(=O)C(F)(F)F)CC4)n2)cn1 [Ex. 30]

0.20
0.31
0.68
